- System: SF-268 CNS
- Experiment summary: NCI-60 one-dose screen, 48 h (100 = growth as untreated, 0 = no growth, -100 = all killed)
- Measurement conditions: 10 µM unless noted
- Description: Cells are grown in 96 well plates and exposed to the test compound for 48 hours. Compounds are tested at a single concentration, which is 10^-5 M for most compounds. The reported endpoint is percent growth (GI% or GIPRCNT), where numbers from 0 - 100% represent growth inhibition, and numbers from -100% - 0 represent cell death. For example, a value of 40 represents 60% growth inhibition. A value of 0 means no net growth occurred over the course of the experiment. […]
The panel holds about 83,000 compounds, 20% with a hit somewhere; the sample as a whole holds those more often. The source made the active and inactive calls. How the source made its calls: active means growth percent below 10; inactive means the rest.
Measured endpoint: growth

Consider the worked cases shown below.
| Compound | Measured endpoint | Observed value |
| --- | --- | --- |
| CCCCCN(CCCCC)CCCNc1c2c(nc3ccc(Cl)cc13)CCCC2 | growth | 76.1% (inactive) |
| CC(=O)Nc1cc2c3c(cccc3c1)-c1ccccc1-2 | growth | 39% (inactive) |
| FCc1ncc(-c2ccc(C(F)(F)F)cc2)c(NC2CCCCCC2)n1 | growth | -0.671% [100 µM] (active) |

Next compound, growth to be filled in.
Task item: Provide the documented growth with SF-268 CNS as the system for "Cc1ccc(-c2c3c(N)c4c(nc3nc3c2c(C)nn3-c2ccccc2)CCC4)cc1"
Reply: 108% (inactive)
